The measurements presented in this section are drawn from patent US8236824B2.

Target: glucokinase (GK), human enzyme (Homo sapiens)
Sequence (P35557 1-465): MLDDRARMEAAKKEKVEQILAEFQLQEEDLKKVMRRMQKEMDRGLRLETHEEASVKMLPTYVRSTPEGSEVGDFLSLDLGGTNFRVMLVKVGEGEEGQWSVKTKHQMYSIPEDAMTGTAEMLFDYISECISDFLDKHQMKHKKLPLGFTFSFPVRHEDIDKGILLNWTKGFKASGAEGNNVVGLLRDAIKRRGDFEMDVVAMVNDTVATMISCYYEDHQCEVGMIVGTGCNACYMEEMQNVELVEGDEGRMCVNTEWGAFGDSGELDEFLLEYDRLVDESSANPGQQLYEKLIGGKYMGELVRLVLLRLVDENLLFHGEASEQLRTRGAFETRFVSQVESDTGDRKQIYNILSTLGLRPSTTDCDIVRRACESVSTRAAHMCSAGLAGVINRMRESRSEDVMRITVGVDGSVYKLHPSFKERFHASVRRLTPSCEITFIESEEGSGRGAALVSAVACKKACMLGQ
Experiment: Glucokinase Activation Screening Assay (coupled enzyme assay with PK/LDH, NADH decline at 340 nm)
Conditions: 2 mM glucose
compounds and their reported EC50

Look over these answered cases.
Cc1cc(NC(=O)c2cc(OCc3ccccc3)cc(OC(C)C)c2)nn1Cc1ccccn1	1000 to 10000 nM
COC[C@H](C)Oc1cc(Oc2ccc(S(C)(=O)=O)cc2)cc(C(=O)Nc2ccn(Cc3cccnc3)n2)c1	10 to 1000 nM
CC(C)Oc1cc(OCc2ccccc2)cc(C(=O)Nc2ccn(Cc3ccccn3)n2)c1	1000 to 10000 nM
COC[C@H](C)Oc1cc(O[C@@H](C)Cc2ccccc2)cc(C(=O)Nc2ccn(Cc3ccccc3)n2)c1	10 to 1000 nM
CC(C)Oc1cc(OCc2ccccc2)cc(C(=O)Nc2ccn(Cc3ccccc3)n2)c1	10 to 1000 nM
COC[C@H](C)Oc1cc(O[C@@H](C)Cc2ccccc2)cc(C(=O)Nc2ccn(Cc3ccccn3)n2)c1	10 to 1000 nM
COC[C@H](C)Oc1cc(O[C@@H](C)Cc2ccccc2)cc(C(=O)Nc2ccn(Cc3ccncc3)n2)c1	10 to 1000 nM

Let us move to another entry and its EC50.
Lookup: May I ask what EC50 has been recorded for "CC(C)Oc1cc(OCCc2ccsc2)cc(C(=O)Nc2ccn(Cc3ccccn3)n2)c1" ?
Found: 10 to 1000 nM
